Numbers sourced from patent US8420657B2.

- targetEntity: GST-JAK2(808-1132) (Homo sapiens, UniProt O60674)
- Construct: GST-JAK2(808-1132); purchased Invitrogen (Carlsbad, USA) #4288
- Sequence (O60674 808-1132): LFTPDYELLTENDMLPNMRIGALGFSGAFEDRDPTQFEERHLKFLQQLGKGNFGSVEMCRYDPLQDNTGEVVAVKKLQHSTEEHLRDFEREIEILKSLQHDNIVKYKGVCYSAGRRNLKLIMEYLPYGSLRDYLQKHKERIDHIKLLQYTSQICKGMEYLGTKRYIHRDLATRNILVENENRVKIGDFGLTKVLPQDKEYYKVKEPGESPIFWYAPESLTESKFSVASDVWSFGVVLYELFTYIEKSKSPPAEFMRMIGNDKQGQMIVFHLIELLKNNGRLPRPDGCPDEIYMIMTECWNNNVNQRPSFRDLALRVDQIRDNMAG
- assayComment: JAK2 kinase assay (Caliper mobility shift, LabChip 3000)
- Assay type: biochemical
pIC50: −log10 of the molar value.
Exercise: for every item that follows, state its recorded pIC50.

Ask: Determine its reported pIC50: O=C1CNCCN1Cc1ccc(Nc2ncc3ccn(-c4cc(F)c(CN5CCOCC5)c(F)c4)c3n2)cc1
Reply: ≥ 8.52

Ask: Determine its reported pIC50: COc1ccc(Nc2ncc3ccn(-c4ccc(S(C)(=O)=O)cc4)c3n2)cc1OCCN1CCOCC1
Reply: > 8.52

Ask: Determine its reported pIC50: CS(=O)(=O)c1ccc(-n2ccc3cnc(Nc4ccc(Cn5ccnc5)cc4)nc32)cc1
Reply: > 8.52

Ask: Determine its reported pIC50: C[C@@H]1CN(Cc2ccc(Nc3ncc4ccn(-c5cc(F)c(CN6CCCC6=O)c(F)c5)c4n3)cc2)C[C@H](C)N1
Reply: ≥ 8.52

Ask: Determine its reported pIC50: C[C@@H]1CN(Cc2ccc(Nc3ncc4ccn(-c5ccc(S(=O)(=O)NC(C)(C)C)cc5)c4n3)cc2)C[C@H](C)N1
Reply: ≥ 8.52

Ask: Determine its reported pIC50: Fc1cc(-n2ccc3cnc(Nc4ccc(N5CCNCC5)nc4)nc32)cc(F)c1CN1CCOCC1
Reply: > 8.52

Ask: Determine its reported pIC50: CS(=O)(=O)c1ccc(-n2ccc3cnc(Nc4ccc(N5CCNCC5)cc4)nc32)cc1
Reply: > 8.52

Ask: Determine its reported pIC50: C[C@@H]1CN(c2ncc(Nc3ncc4ccn(-c5cc(F)c(CN6CCOCC6)c(F)c5)c4n3)cc2C(F)(F)F)C[C@H](C)N1
Reply: ≥ 8.52

Ask: Determine its reported pIC50: COc1cc(Nc2ncc3ccn(-c4ccc(C(=O)NC(C)(C)C)cc4)c3n2)cc(OC)c1OC
Reply: > 8.52
